test: NCI Yeast Anticancer Drug Screen. Data for the mec2-1 strain (AID 157); details: S. cerevisiae mec2-1 strain, at 50.0 µM
This is part of a sample that, as a whole, favours compounds with a hit. Of some 79,000 tested, about 15% had one in any assay. The source made the active and inactive calls. No stated cut-off is given here; in the data, active means growth inhibition above about 70%; inactive means the rest.
A correct response names exactly one class from 1 for active, 0 for inactive

Exam item: Query: recorded result category for `C[C](C)(C)[Ge]([O][Ge]([c]1ccccc1)[c]1ccccc1)([O][Ge]([c]1ccccc1)[c]1ccccc1)[C](C)(C)C` in this test
Marked response: 0

====

assay: NCI Yeast Anticancer Drug Screen. Data for the rad52 strain (AID 147);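 further: 0% = growth of vehicle-treated control cultures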; settings: S. cerevisiae rad52 mutant growth inhibition; at 33.0 µM
This is part of a sample that, as a whole, favours compounds with a hit. Of some 79,000 tested, about 15% had one in any assay. Calls of active or inactive are those of the source. Rule as the data show it: active = growth inhibition above about 70%; inactive = the rest.
# output must be one of 1.0 (active), 0.0 (inactive)

| compound | discreteLabel |
| --- | --- |
| C=C(Cl)COC(=O)Nc1cccc(Cl)c1 | 1.0 |
| CCCCc1ccc(-n2c(C)c(COC(=O)NC)c(COC(=O)NC)c2C)cc1 | 1.0 |
| CC(C)(C)N=C(NO)c1ccccc1 | 0.0 |
| CCCCCCN(CCCCCC)CC(O)c1ccnc2ccc(OC)cc12 (stereo unspecified) | 0.0 |
| CCCCCCC(O)CNCc1ccnc2ccc(OC)cc12 (stereo unspecified) | 0.0 |

Could you now look at the following compound, please?
Exam item: Can you look up the reported call for `Nc1n[n+]([O-])c2ccc(Cl)cc2[n+]1[O-]` for me?
Marked response: 1.0

====

assay: NCI Yeast Anticancer Drug Screen. Data for the sgs1 strain (AID 173);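 further: 0% = growth of vehicle-only control cultures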; settings: S. cerevisiae sgs1 mutant, at 33.0 µM
This is part of a sample that, as a whole, favours compounds with a hit. Of some 79,000 tested, about 15% had one in any assay. Activity calls are given as the source filed them. Rule as the data show it: active = growth inhibition above about 70%; inactive = the rest.
Hello, when you answer, please use one of the following outcomes: yes = active, no = inactive

Answered examples (4):
| molecule | discreteLabel |
| --- | --- |
| CCCCCCOC(=O)NCCOC(=O)Nc1ccccc1 | no |
| CCOC(=O)[C@H]1Nc2ccc(OC)cc2C2c3ccccc3CC21 (stereo partly specified) | yes |
| COC1=C(OC)C(=O)C(Sc2ccc3ccccc3c2)=CC1=O | yes |
| CCCCc1nnc(NS(=O)(=O)c2ccc(C)cc2)s1 | no |

Consider the record given below.
Exam item: # fetch the recorded call for `O=C1C(=O)c2ccccc2C(O)=C1C(C1=C(O)c2ccccc2C(=O)C1=O)c1ccc(Cl)cc1` here
Marked response: yes

====

experiment: NCI Yeast Anticancer Drug Screen. Data for the rad52 strain (AID 147);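 further: 0% = growth of vehicle-treated control cultures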; conditions: S. cerevisiae rad52 mutant growth inhibition; at 100.0 µM; stronger effect = higher value
This is part of a sample that, as a whole, favours compounds with a hit. Of some 79,000 tested, about 15% had one in any assay.
endpointName: growth inhibition (%)
Answers are plain numbers, in %.

Previously resolved entries follow.
| compound | endpointName | measured |
| --- | --- | --- |
| CC(=O)Nc1ccc(/C=C/[N+](=O)[O-])cc1 | growth inhibition | 97 |
| Nc1nc(N)c2nc(CNc3ccc(C(=O)NC(CCC(=O)O)C(=O)O)cc3F)cnc2n1 (centres undefined) | growth inhibition | 89 |
| Cn1c(-c2ccc(/C=N\N3CCN(/N=C/c4ccc(-c5c[n+]6ccccc6n5C)cc4)CC3)cc2)c[n+]2ccccc12 | growth inhibition | 82 |

From here, focus on the item given below.
Exam item: Look at this compound and give its reported growth inhibition. CC(=O)OCC1OC2OC(=O)NC2C(OC(C)=O)C1OC(C)=O (centres undefined)
Marked response: -3
